target: HLA-A*31:01; assay: IEDB peptide-MHC binding, purified MHC/competitive/radioactivity; filed as Kd, often an IC50 or EC50 that approximates it; bounds were set here for any values at or beyond the usual limits of such assays; details: source organism: Triticum aestivum
Readout Type: pKd
One number for each entry, as −log10 of the molar value.

State the recorded pKd for this entry: "QQQQQQQQK"
5.27

====

target: HLA-B*15:17; assay: IEDB peptide-MHC binding, purified MHC/direct/fluorescence; filed as Kd, often an IC50 or EC50 that approximates it; bounds were set here for any values at or beyond the usual limits of such assays; conditions: source organism: Lake Victoria marburgvirus - Popp
pKd: −log10 of the molar value.
Readout Type: pKd

Entry "KSPDVHEDF" has what pKd?
≤ 4.70

====

molecular target: HLA-B*46:01; experiment: IEDB peptide-MHC binding, purified MHC/direct/fluorescence; filed as Kd, often an IC50 or EC50 that approximates it; bounds were set here for any values at or beyond the usual limits of such assays; conditions: source organism: Vibrio parahaemolyticus AQ3810
pKd: −log10 of the molar value.
Readout Type: pKd

Which pKd reading was recorded for the sequence "RLDKPLWLH" ?
≤ 4.70

====

biological target: HLA-A*02:03; assay: IEDB peptide-MHC binding, purified MHC/competitive/radioactivity; filed as Kd, often an IC50 or EC50 that approximates it; bounds were set here for any values at or beyond the usual limits of such assays; conditions: source organism: Vaccinia virus WR
Readout Type: Kd (nM)
Give bare numbers, in nM.

The following sequences have reported results that may help.
INSERT INTO measurements (biopolymer_sequence, observed_measurement) VALUES
  ('DVCKKNLDL', 8020),
  ('IIAVFDSKL', 107),
  ('VQSVLRDISI', 541),
  ('RIEDMFLTSV', 71),
  ('AMLKSKNINI', 223);

Give measured Kd for every item shown.
1. SLKRFTHTTA
2. FIQWTGGNI

[726, 54.7]

Quick request: Kd for each listed item, please.
1. IISYIILFI
2. DAEFVMCLEA
3. SMTSDSKSI
4. FAFIDFSKST
5. IISSKQYPA

1: 58.7; 2: 7310; 3: 2300; 4: 2410; 5: 612

Fill in Kd for each of the 3 sequences listed.
1. TINALVYFST
2. ILDNLRCHSA
3. LANERYRSA

1: 7340; 2: 69.3; 3: 554

Count: 2. Required value per item: Kd.
1. SIRCVKYLL
2. ELKDLLNVT

1. 55.7
2. 209

Items follow; give Kd for each.
1. YIAGLKIEEI
2. KTIISEEYL
3. SMYVIPDELI
4. LLLENKSLTI

[5.3, 1220, 114, 985]

Dear reader, for each entry below, please note its Kd.
1. YTKHSMLTNA
2. FTEGKINPLL

1: 141; 2: 595

Hi team, please reply with Kd for each item in this list.
1. SLGKSPLPSL
2. EIKAEMQLKI
3. FISYNRHNDT
4. YVIPDELIDV
5. RAAIDRQVSV
6. MICCDSRIVV

[46.8, 4760, 4930, 13.9, 40.8, 392]

Consider the following items and state reported Kd for each.
1. NVSRVVECL
2. VILKDPRIA
3. PLPCQLMYAL
4. NVTYNIKPV
5. FISPASISSV
6. MIYDLNAVTT
7. STIANSNII
8. SVGTGILFM

1: 938; 2: 603; 3: 8710; 4: 153; 5: 0.111; 6: 477; 7: 1470; 8: 2250

What does the record list as Kd for "ATICLKNEGV" ?
70.9

This collection of values is drawn from the Immune Epitope Database (IEDB).
